# Experiment summary: yeast display, Sf9 membrane polyspecificity reagent, FACS + sequencing; frameworks hold sequencing errors
Parameter measured: polyreactivity (PSR sort gate)

| Sequence content | Parameter measured | Result |
| --- | --- | --- |
| QDQLVESGGGLVQAGASLRLSCAASGFTFHNKFKGWYRQAPGKERELVATISKSGGSTYYADSVKGRFTISRDYAKNTVNLQMNSLKPEDTAVYYCARRYRDYGRYGYWGQGTQVTVSS | polyreactivity (PSR sort gate) | high polyreactivity |
| QVQLVESGGGLVQAGGSLRLSCAASGSIFAGYAMGWYRQAPGKERELVAAISWSGGRTYYADSVKGRFTISRDNAKNTVYLQMNSLKPEDTAVYYCAALYIYRTYAALSRYDYWGQGTQVTVSS | polyreactivity (PSR sort gate) | high polyreactivity |
| QLQLVESGGRLVQAAVSLRLSFAASGRTFYPYAMGWYRPAPGKERELVAAITSRGASTYYADSVKGRFTISRDNAKNTVYLQMNSLKPEDTAVYYCNSGRTYRRLGDYLGQGTQVTVSS | polyreactivity (PSR sort gate) | high polyreactivity |
| QVQLVESGGGLVQAGGSLRLSCAASGRIFSFNAMGWYRQAPGKERELVAGITDSGGSTYYADSVKGRFTISRDNAKNTVYSQMNSLKPEDTAVYYCNAEWPYSRVRDYFYAYDYWGQGTQVTVSS | polyreactivity (PSR sort gate) | low polyreactivity |
| QVQLVESGAGLVQAGGSLRLSCAASGSTFDGNVMGWYRQEPGKESELVAAISGGGSTNYADSVKGRFTISRDNAKNTVYLQMNSLKPEDTAVYYCATQYWHFPYWQYKYDYWGQGTQVTVSS | polyreactivity (PSR sort gate) | low polyreactivity |
| QVQLVESGGGLVQAGGSLRLSCASSGFIFWYYAMGWYRQAPGKERELVAAISSGDSKNYADSVKGRFTISRDNAKNTVYLQMNCLKPEDTAVYYCAARQPRTQAVYEGYYWGHGTQVTVSS | polyreactivity (PSR sort gate) | high polyreactivity |
| QVQLVESGGGLFQAGGSLRLSCAASGGIFSLYAMGWYRQAPGTERELVAVISSTCSTHYADSVKGRFTISRDNAKKTVSLLMNSLKPEDTAVYYCNADARTSRKKFGYWGQGTQVTVSS | polyreactivity (PSR sort gate) | low polyreactivity |
| QVQLVESGVGLVQAGGSLRLSCAASGRTFYVYAMGWNIQAPGKERELVAAISWGRGSTYYADSVKGRFTNSRDYAKNTVYLQMNSLQPEDTAVYYCADDKTRYRLGRDYWGQGTQVTVSS | polyreactivity (PSR sort gate) | low polyreactivity |
| QVQLVESGGGLVQAGGSLRLSCAASGRTFYTNAMGRYRQAPGKERELVAAISRGGGRTYYADSVKGRFTISRDNAKNTVYLQMNSLKPEDTAVYYCAASPYQGQGREYYYWGQGTQVTVSS | polyreactivity (PSR sort gate) | high polyreactivity |
| QVQLVESGVGLVQAGGSLRLSCAASGRTFYKNAMGWSRQSPGKERELVAAISRRGGTTYYADSVKGRFTISRDNAKNTVYLQLNSPKPEDTAVYYCAVTRLGPTIGFYYWGQGTQVTVSS | polyreactivity (PSR sort gate) | high polyreactivity |
| QVQLVESGGGLVQAGGSLRFSCAASGSTTYRYAMGWYRQAPGKERELVAAISSRGGSTYYADSVKGRFTISRDNAKNTVYLQMNSLKPEDTAVYYCAVKDRYSFRYDYWGQGTQVTVSS | polyreactivity (PSR sort gate) | high polyreactivity |
| QVQLVESGGGLVQAGGSLRLSCAASGSTFDYNAMGGYRQAPGKERELVAAISRGGNTYYADSVKGRFTISRDNAKNTVYLQMNSLKPEDTAVYYCAKDSYGSYRFVRNRQKAYGYWGQGTQVTVSS | polyreactivity (PSR sort gate) | low polyreactivity |
| LVQLVESGGGLVQAGGSLRLSCAASGSTFDYYAMGWYRQAPGQERELVAAISGSGDRTYYADSVKGRFTISRDNAKNTVYLQMNSLKPEDTAVYYCAKYGRTRFYYWGQGTQVTVSS | polyreactivity (PSR sort gate) | high polyreactivity |
| QVQLVESGGGLVQAGGRLRISCAASGRTFGRYTMGWYRQAPGKERELVASISNTARTNYADSVKGRFTISRDNAKNTVYLQMNSLKPEDTAVYYCAAERAILSSDKQSLWRFDYWGQGTQVTVSS | polyreactivity (PSR sort gate) | low polyreactivity |
| QVQLVESGGGLVQAGGSLRLSCAASGFTFDWNGMGWYRQAPGKEREFVAGITWSGTSTYADSVKGRFTISRDNAKNTVYLQMNSLKPEDTAVYYCAAVSSKGNRHEYDYWGQGTQVTVSS | polyreactivity (PSR sort gate) | low polyreactivity |
| QVQLVESGGGLVQAGGSLRLSCAASRSIFLYYAMGWYRQAPGKERELVAAISYSGSGTYADSVKGRFTISRDNAKNTVYLQMNSLKPEDTAVSYCNVDYGSNSYDYWGQGTQVTVSS | polyreactivity (PSR sort gate) | low polyreactivity |
| QDQLVESGGGLVEAGGSLRLSCAASGITFSWYAMVWKRQAPGKEREFVAAISPGGTSTYYADSVKGRFTISRDNAKKTVYLQMNSLKPEDTAFYYCAVQWLYPYDYWGHGTQVTVSS | polyreactivity (PSR sort gate) | high polyreactivity |
| QVKLVESGGGLVQAGGSLRLSCAASGSIVVRYTMGWYRQAPGKERELVAAIYWGGGSTYYADSVKGRFTISRDNAKNTVYLQMNSLKAEDTAVYYCKKRYILLYDYWGQGTQVTVSS | polyreactivity (PSR sort gate) | low polyreactivity |
| QVQLVESGGGLVQAGGSLRLSCAASGSTFTLYAMGWYRQAPGKERELVAAISWSGDTTYYADSVKGRFTISRDNAKNTVYLQMNSLKPEDTAVYYCAADWYTSYYYEHESWGQGTQVTVSS | polyreactivity (PSR sort gate) | high polyreactivity |
| QVQLVESGGGLVQAGGILRLSCAASGRTFGLYAMGWYRQAPGKERELVAAISWGGGRTYYADSVKGRFTISRDNAKNTVDLQMNSVKPEYTAVYYCNAVYSPRYYVGGYDYWGQGTHVTVSS | polyreactivity (PSR sort gate) | high polyreactivity |
| QVQLVESGGGLVQAGGSLRLSCAASGSTFVRNAMGWYRQAPGKERELVAAISGSGSRTYYADSVKGRFTISRDNAKNTVYLQMNSLKPEDTAVYYCAARITAHEYDYWGQGTQVTVSS | polyreactivity (PSR sort gate) | high polyreactivity |

The values you see were collected from the nanobody polyreactivity screen of Harvey et al. (2022).
